Experiment: Solubility studies (excess drug, agitation at least 24 h, HPLC)
Format: physicochemical
Settings: 50% (v/v) PEG 400, aqueous with cosolvent or surfactant or cyclodextrin, thermodynamic from solid; 50% PEG 400; read-out: Solubility
reported_metric: solubility

*Q* Item `COc1cc(/C=C/C(=O)N2CCC=CC2=O)cc(OC)c1OC` : provide solubility
*A* ~1100 µg/mL

###

Assay: Solubility studies (excess drug, agitation at least 24 h, HPLC)
Type: physicochemical
Conditions: 20% (w/v) sulfobutyl ether β-cyclodextrin, aqueous with cosolvent or surfactant or cyclodextrin, thermodynamic from solid; read-out: Solubility
reported_metric: solubility

*Q* Answer with the recorded solubility for the compound listed here: `COc1cc(/C=C/C(=O)N2CCC=CC2=O)cc(OC)c1OC`
*A* ~1000 µg/mL

###

Test: Solubility studies (excess drug, agitation at least 24 h, HPLC)
Format: physicochemical
Settings: 10% ethanol: 40% PEG 400 (w/v), aqueous with cosolvent or surfactant or cyclodextrin, thermodynamic from solid; read-out: Solubility
reported_metric: solubility

*Q* In one line, give reported solubility of the entry `COc1cc(/C=C/C(=O)N2CCC=CC2=O)cc(OC)c1OC` .
*A* ~1700 µg/mL

###

Assay: Solubility studies (excess drug, agitation at least 24 h, HPLC)
Type: physicochemical
Settings: 10% (w/v) Tween 80, aqueous with cosolvent or surfactant or cyclodextrin, thermodynamic from solid; 10% Tween 80; read-out: Solubility
reported_metric: solubility

*Q* Note down solubility recorded for `COc1cc(/C=C/C(=O)N2CCC=CC2=O)cc(OC)c1OC`
*A* ~700 µg/mL

###

Assay: Solubility studies (excess drug, agitation at least 24 h, HPLC)
Format: physicochemical
Settings: 100% ethanol, organic solvent or mixture, thermodynamic from solid; pure ethanol; read-out: Solubility
reported_metric: solubility

*Q* Consider the compound COc1cc(/C=C/C(=O)N2CCC=CC2=O)cc(OC)c1OC [piperlongumine] and give its recorded solubility.
*A* ~11 mg/mL

###

Assay: Solubility studies (excess drug, agitation at least 24 h, HPLC)
Type: physicochemical
Settings: 10% ethanol: 40% PEG 400 (w/v); read-out: Solubility
Method: Solubility of piperlongumine was determined in purified water and the following cosolvent and surfactant systems: 5, 15, 30% (v/v) acetonitrile; 5, 15, 30, 50, 100% (v/v) of polyethylene glycol 400 (PEG 400), ethanol, glycerin and propylene glycol; 3, 7, 10% (w/v) of Tween 80; 2.5, 5, 10% (w/v) of Cremophor Rh 40; and a solution composition of 10% ethanol: 40% PEG 400 (w/v). […]
reported_metric: solubility (µg/mL)
Unit µg/mL implied. Number only.

*Q* Retrieve solubility measured for `COc1cc(/C=C/C(=O)N2CCC=CC2=O)cc(OC)c1OC` and print it.
*A* 1000

###

Experiment: Solubility studies (excess drug, agitation at least 24 h, HPLC)
Assay type: physicochemical
Conditions: 30% (v/v) acetonitrile, aqueous with cosolvent or surfactant or cyclodextrin, thermodynamic from solid; 30% acetonitrile; read-out: Solubility
reported_metric: solubility (µg/mL)
Respond numerically; units are µg/mL and should not be typed.

*Q* Answer with the recorded solubility for the compound listed here: `COc1cc(/C=C/C(=O)N2CCC=CC2=O)cc(OC)c1OC`
*A* 1600

###

Assay: Solubility studies (excess drug, agitation at least 24 h, HPLC)
Type: physicochemical
Conditions: thermodynamic from solid; purified water, ambient temperature; read-out: Solubility in water (intrinsic solubility)
reported_metric: solubility

*Q* Supply recorded solubility for COc1cc(/C=C/C(=O)N2CCC=CC2=O)cc(OC)c1OC [piperlongumine] here.
*A* 26 µg/mL
